Biological target: T1, alpha-synuclein peptide 61-140 (human)
T1 construct: synthetic peptide coated on plate
Assay: peptide ELISA, coated fragment
PROPERTY_MEASURED: antibody concentration at which ELISA is positive

antibody concentration at which ELISA is positive in this record for 22D11 (antibody, rat IgG1, V domains shown, also called clone 22D11) VH: AVQFVESGGGLVRPKESLKISCTASGFTFTNAAIYWVRQAPGKGLECIARIRTKPNNYATYYADSVRGRFTISRDDSKPMVYLQMNELKTEDTAMYYCAADASRGDYWGQGVMVTVSS VL: DIQMTQSPSVLSASVGDRVTFSCKASQNINKNLDWYQQKLGEVPKVLIYFTNNLQTGIPSRFSGSGSGTDYTLTISSLQPEDVATYYCYQYTSGFTFGAGTKLELK : < 40 ng/mL
